Target: Aldo-keto reductase family 1 member C3 (Homo sapiens)
Sequence (P42330 whole entry): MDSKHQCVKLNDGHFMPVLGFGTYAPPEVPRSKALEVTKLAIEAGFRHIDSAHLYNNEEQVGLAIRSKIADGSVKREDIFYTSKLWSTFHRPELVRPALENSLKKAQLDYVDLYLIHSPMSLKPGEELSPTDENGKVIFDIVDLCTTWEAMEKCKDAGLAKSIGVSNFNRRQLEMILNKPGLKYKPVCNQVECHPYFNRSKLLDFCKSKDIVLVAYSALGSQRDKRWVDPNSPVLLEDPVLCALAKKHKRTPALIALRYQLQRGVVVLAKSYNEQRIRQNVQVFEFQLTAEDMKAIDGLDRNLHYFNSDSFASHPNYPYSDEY
Assay: Inhibition of recombinant AKR1C3 (unknown origin) after 1 hr by competitive fluorescence assay
recorded endpoint: IC50 (µM)
Numbers only, in µM.

Here are 8 compounds together with their reported answers.
1. O=C(N1CCOCC1)N1CCN(c2ccc([N+](=O)[O-])cc2)CC1 :: 0.57
2. O=C(N1CCOCC1)N1CC2CC1CN2c1ccc(Cl)cc1 (stereo not drawn) :: 3.7
3. O=C(N1CCOCC1)N1CCN(c2ccccc2)CC1 :: 6.1
4. O=C(N1CCOCC1)N1CCN(c2ccc(F)cc2)CC1 :: 0.5
5. Cc1ccc(N2CCN(C(=O)N3CCOCC3)CC2)cc1 :: 0.36
6. Cc1ccccc1N1CCN(C(=O)N2CCOCC2)CC1 :: 12.1
7. O=C(O)C1CCN(C(=O)N2CCN(c3ccc(Cl)cc3)CC2)CC1 :: 21.9
8. O=C(N1CCOCC1)N1CCN(c2ccccc2C(F)(F)F)CC1 :: 0.7

Quick batch: IC50 for everything below.
1. O=C(CO)N1CCN(C(=O)N2CCN(c3ccc(Cl)cc3)CC2)CC1
2. O=C(N1CCOCC1)N1CCN(c2cccc(Cl)c2)CC1
3. CS(=O)(=O)c1ccc(N2CCN(C(=O)N3CCOCC3)CC2)cc1
4. O=C(N1CCOCC1)N1CCN(Cc2ccc(Cl)cc2)CC1

# output
[0.46, 5.3, 5.52, 0.35]

Quick batch: IC50 for everything below.
1. O=C(N1CCN(c2ccc(Cl)cc2)CC1)N1CCc2ccccc2C1
2. O=C(N1CCCCC1)N1CCN(c2ccc(Cl)cc2)CC1
3. Cc1cc(Cl)ccc1N1CCN(C(=O)N2CCOCC2)CC1
4. O=C(N1CCOCC1)N1CCN(c2ccc(C(F)(F)F)cc2)CC1

# output
0.35
3.8
0.11
0.068

Quick batch: IC50 for everything below.
1. O=C(N1CCOCC1)N1CCN(c2ccc(Br)cc2)CC1
2. COc1ccc(N2CCN(C(=O)N3CCOCC3)CC2)cc1
3. O=C(N1CCOCC1)N1CCN(c2ccc(Br)cn2)CC1
4. O=C(N1CCOCC1)N1CCN(c2ccc(Cl)nc2)CC1
5. O=C(N1CCOCC1)N1CCN(c2cnc3ccccc3c2)CC1
6. COc1ccccc1N1CCN(C(=O)N2CCOCC2)CC1

# output
1: 0.14; 2: 0.35; 3: 0.1; 4: 0.53; 5: 2.9; 6: 20.3

Quick batch: IC50 for everything below.
1. C#Cc1ccc(N2CCN(C(=O)N3CCOCC3)CC2)cc1
2. O=C(N1CCOCC1)N1CCN(c2ccc3ccccc3c2)CC1
3. O=C(c1ccncc1)N1CCN(c2ccc(Cl)cc2)CC1
4. O=C(N1CCOCC1)N1CCN(c2ccc(Cl)cc2)CC1
5. O=C(N1CCOCC1)N1CCCN(c2ccc(Cl)cc2)CC1

# output
1: 0.66; 2: 4.9; 3: 12.6; 4: 0.11; 5: 30

Quick batch: IC50 for everything below.
1. O=C(N1CCOCC1)N1CCN(c2ccccc2Cl)CC1
2. O=C(N1CCOCC1)N1CCN(c2ccc(Cl)cc2Cl)CC1

# output
1. 2.3
2. 0.025

----------
Would you mind telling me the reported pIC50 of each entry?
Target: Aldo-keto reductase family 1 member C2 (Homo sapiens, UniProt P52895)
Sequence (P52895 whole entry): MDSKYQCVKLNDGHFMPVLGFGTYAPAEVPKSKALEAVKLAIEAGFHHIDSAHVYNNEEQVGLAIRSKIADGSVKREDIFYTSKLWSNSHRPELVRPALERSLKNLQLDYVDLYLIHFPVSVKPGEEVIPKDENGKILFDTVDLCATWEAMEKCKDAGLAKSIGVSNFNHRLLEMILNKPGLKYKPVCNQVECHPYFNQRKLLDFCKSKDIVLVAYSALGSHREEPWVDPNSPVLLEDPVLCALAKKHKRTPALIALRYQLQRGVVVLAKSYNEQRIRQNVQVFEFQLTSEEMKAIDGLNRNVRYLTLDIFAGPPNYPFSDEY
Assay: Inhibition of recombinant AKR1C2 (unknown origin) after 1 hr by competitive fluorescence assay
pIC50: −log10 of the molar value.

1. O=C(N1CCOCC1)N1CC2CC1CN2c1ccc(Cl)cc1 (configuration not stated) :: < 4.52
2. O=C(N1CCOCC1)N1CCN(c2ccc(Cl)cc2)CC1 :: < 4.52
3. O=C(N1CCOCC1)N1CCN(c2ccccc2C(F)(F)F)CC1 :: < 4.52
4. O=C(N1CCOCC1)N1CCN(c2ccccc2Cl)CC1 :: < 4.52
5. COC(=O)c1ccc(N2CCN(C(=O)N3CCOCC3)CC2)cc1 :: < 4.52

Quick batch: pIC50 for everything below.
1. O=C(N1CCOCC1)N1CCN(c2ccc(Cl)nc2)CC1
2. O=C(N1CCOCC1)N1CCN(c2ccc(Br)cc2)CC1
3. O=C(N1CCSCC1)N1CCN(c2ccc(Cl)cc2)CC1
4. O=C(N1CCOCC1)N1CCN(c2ccc(I)cc2)CC1

# output
1. < 4.52
2. < 4.52
3. < 4.52
4. < 4.52
